- Assayed system: KAT7+JADE1+EAF6+ING5 4 protein complex (Homo sapiens (Human), UniProt O95251)
- Experiment: KAT7 JADE1 assay (SAMDI-MS acetylation of H3 1-21 peptide)
- Type: biochemical
- Study conditions: Morrison equation fit; replicate number in parentheses; read-out: KAT7 JADE1 Ki (nM) (replicate number)
As shown below, each of these compounds has a reported Ki value.
Endpoint: Ki (nM)

COc1cc2c(NS(=O)(=O)c3cc4ccccc4cc3OC)noc2cc1Nc1cc(C2CC2)n[nH]1 [Example 95] : 0.3
COc1cc2c(NS(=O)(=O)c3c(OC)cccc3OC)noc2cc1Nc1nccc(C)n1 [Example 105] : 414
COc1cc2c(NS(=O)(=O)c3c(OC)cccc3OC)noc2cc1Nc1ncn(C)n1 [Example 35] : 527
COc1cccc(OC)c1S(=O)(=O)Nc1noc2cc(Nc3ncc[nH]3)cc(OC)c12 [Example 15] : 256
COc1cc2c(NS(=O)(=O)c3c(OC)cc(-c4ccn(C)n4)cc3OC)noc2cc1Nc1cc(C2CC2C)n[nH]1 (single isomer, unassigned) [Example 241] : 75.3
COc1cc2c(NS(=O)(=O)c3c(OC)cc(-c4ncc(CN(C)C)cn4)cc3OC)noc2cc1Nc1cc(C2CC2)n[nH]1 [Example 223] : 4
COc1cc2c(NS(=O)(=O)c3c(OC)cccc3OC3CCC3)noc2cc1Nc1cc[nH]n1 [Example 33] : 142
COc1cc2c(NS(=O)(=O)c3c(OC)cc(CN4CCCC4(C)C)cc3OC)noc2cc1Nc1cc(C2CC2)n[nH]1 [Example 206] : 28.8

----------
- Assayed system: KAT6A Full length enzyme (Homo sapiens (Human), UniProt Q92794)
- Sequence (Q92794 other isoform, or with tags, fused parts or gaps): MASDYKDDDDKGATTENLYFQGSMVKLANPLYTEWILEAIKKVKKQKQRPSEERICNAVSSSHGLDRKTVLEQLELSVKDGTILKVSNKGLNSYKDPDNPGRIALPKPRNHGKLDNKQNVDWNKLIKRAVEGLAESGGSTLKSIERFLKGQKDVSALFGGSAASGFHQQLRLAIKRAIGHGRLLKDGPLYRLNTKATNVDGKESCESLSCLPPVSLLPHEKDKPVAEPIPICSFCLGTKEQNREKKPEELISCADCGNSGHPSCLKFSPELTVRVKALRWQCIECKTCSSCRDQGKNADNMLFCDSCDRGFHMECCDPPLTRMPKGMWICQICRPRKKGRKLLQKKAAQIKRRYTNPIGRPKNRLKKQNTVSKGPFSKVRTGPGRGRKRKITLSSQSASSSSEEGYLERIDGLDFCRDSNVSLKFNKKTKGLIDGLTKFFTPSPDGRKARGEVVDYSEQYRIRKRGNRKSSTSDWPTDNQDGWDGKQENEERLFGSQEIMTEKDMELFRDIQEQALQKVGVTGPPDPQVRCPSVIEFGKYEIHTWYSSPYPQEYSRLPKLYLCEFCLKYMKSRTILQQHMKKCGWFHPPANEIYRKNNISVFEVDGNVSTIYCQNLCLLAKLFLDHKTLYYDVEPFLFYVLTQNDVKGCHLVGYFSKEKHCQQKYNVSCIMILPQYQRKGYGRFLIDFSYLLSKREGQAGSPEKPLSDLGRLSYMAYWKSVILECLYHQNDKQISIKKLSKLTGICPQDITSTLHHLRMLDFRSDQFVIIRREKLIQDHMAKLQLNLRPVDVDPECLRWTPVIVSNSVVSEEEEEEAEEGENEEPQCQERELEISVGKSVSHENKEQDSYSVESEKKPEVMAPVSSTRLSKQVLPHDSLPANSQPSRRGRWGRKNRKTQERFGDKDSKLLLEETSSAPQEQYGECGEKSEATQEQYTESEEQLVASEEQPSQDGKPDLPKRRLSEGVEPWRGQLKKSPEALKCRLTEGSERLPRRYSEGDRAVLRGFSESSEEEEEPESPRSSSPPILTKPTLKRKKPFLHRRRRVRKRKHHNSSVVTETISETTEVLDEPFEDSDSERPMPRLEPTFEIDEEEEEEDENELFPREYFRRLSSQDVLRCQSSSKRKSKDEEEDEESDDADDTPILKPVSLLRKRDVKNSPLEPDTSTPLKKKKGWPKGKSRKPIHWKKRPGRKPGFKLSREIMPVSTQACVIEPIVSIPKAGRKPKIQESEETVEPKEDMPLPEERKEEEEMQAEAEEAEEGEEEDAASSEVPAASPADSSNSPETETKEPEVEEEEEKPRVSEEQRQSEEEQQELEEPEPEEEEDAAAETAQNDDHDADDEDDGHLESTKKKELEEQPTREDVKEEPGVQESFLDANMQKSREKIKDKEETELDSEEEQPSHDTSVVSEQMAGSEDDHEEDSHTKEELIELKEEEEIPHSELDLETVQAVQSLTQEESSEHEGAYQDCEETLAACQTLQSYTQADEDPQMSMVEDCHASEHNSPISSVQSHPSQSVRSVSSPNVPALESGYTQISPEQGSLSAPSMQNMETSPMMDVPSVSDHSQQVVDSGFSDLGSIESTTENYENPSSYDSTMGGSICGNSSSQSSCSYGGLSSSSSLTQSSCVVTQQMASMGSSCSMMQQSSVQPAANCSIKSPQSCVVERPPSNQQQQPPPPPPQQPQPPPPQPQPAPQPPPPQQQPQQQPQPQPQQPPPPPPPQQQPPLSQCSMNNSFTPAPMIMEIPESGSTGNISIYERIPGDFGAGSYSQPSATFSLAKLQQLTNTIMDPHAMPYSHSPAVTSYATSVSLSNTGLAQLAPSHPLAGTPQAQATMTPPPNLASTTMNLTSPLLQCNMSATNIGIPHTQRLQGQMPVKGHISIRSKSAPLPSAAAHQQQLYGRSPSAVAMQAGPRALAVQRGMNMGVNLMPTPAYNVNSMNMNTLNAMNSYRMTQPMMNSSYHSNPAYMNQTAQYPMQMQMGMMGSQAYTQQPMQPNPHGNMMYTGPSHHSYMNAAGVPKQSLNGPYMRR
- Experiment: KAT6A assay (SAMDI-MS acetylation of H3 1-21 peptide)
- Format: biochemical
- Study conditions: Morrison equation fit; replicate number in parentheses; read-out: KAT6A Ki (nM) (replicate number)
As shown below, each of these compounds has a reported Ki value.
Endpoint: Ki (nM)

CCOc1cc(C)c(F)cc1S(=O)(=O)Nc1noc2cc(Nc3cc(C(C)C)[nH]n3)c(OC)cc12 : 5.1
COc1cc2c(NS(=O)(=O)c3c(OC)cccc3OC)noc2cc1Nc1cc2n(n1)CC[C@@H]2C (single isomer, unassigned) : 3
COc1cc2c(NS(=O)(=O)c3c(OC)cc(C4CN(C5CCOC5)C4)cc3OC)noc2cc1Nc1cc(C2CC2)n[nH]1 (racemic) : 2.2
COc1cc2c(NS(=O)(=O)c3c(OC)cccc3OC)noc2cc1Nc1cc(OC)n(C)n1 : 5.6
COc1cc2c(NS(=O)(=O)c3c(OC)cccc3OC)noc2cc1Nc1[nH]nc(C)c1C#N : 2.3
COc1cc2c(NS(=O)(=O)c3c(OC)cccc3OC)noc2cc1Nc1ncc(C)cn1 : 44.1

----------
As shown below, each of these molecules has a reported Ki value.
- Assayed system: KAT8 Full length enzyme (Homo sapiens (Human), UniProt Q9H7Z6)
- Sequence (Q9H7Z6 whole entry): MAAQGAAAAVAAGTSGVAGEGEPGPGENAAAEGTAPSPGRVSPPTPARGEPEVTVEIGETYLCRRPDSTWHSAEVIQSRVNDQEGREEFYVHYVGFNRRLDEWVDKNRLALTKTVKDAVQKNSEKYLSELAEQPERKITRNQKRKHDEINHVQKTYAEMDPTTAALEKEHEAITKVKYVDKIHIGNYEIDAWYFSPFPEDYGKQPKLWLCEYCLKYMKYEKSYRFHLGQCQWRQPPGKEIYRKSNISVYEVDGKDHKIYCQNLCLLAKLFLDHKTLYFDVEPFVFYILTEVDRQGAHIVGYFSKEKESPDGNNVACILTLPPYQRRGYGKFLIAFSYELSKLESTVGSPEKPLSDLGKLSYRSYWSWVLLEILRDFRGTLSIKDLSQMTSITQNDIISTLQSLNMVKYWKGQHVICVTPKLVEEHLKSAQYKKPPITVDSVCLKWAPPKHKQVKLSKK
- Experiment: KAT8 assay (SAMDI-MS acetylation of H3 1-21 peptide)
- Format: biochemical
- Study conditions: Morrison equation fit; replicate number in parentheses; read-out: KAT8 Ki (nM) (replicate number)
Endpoint: Ki

CCc1nc(Nc2cc3onc(NS(=O)(=O)c4c(OC)cccc4OC)c3cc2OC)n[nH]1 [Example 40] : > 16300 nM
CCn1cnc(Nc2cc3onc(NS(=O)(=O)c4c(OC)cccc4OC)c3cc2OC)c1 [Example 75] : > 11200 nM
COc1cc2c(NS(=O)(=O)c3c(OC)cccc3OC)noc2cc1Nc1cc2n(n1)CC[C@H]2C (single isomer, unassigned) [Example 90] : > 13000 nM
CCc1cc(Nc2cc3onc(NS(=O)(=O)c4cc(F)ccc4Br)c3cc2OC)n[nH]1 [Example 135] : > 13000 nM
CCc1cc(Nc2cc3onc(NS(=O)(=O)c4c(OC)cccc4OC)c3c(OC)c2F)[nH]n1 [Example 72] : > 6970 nM
CCn1nc(Nc2cc3onc(NS(=O)(=O)c4c(OC)cccc4OC)c3cc2OC)cc1C [Example 74] : > 13000 nM

----------
- Assayed system: KAT7+JADE1+EAF6+ING5 4 protein complex (Homo sapiens (Human), UniProt O95251)
- Experiment: KAT7 JADE1 assay (SAMDI-MS acetylation of H3 1-21 peptide)
- Format: biochemical
- Study conditions: Morrison equation fit; replicate number in parentheses; read-out: KAT7 JADE1 Ki (nM) (replicate number)
Endpoint: Ki (nM)

CCc1cnc(Nc2cc3onc(NS(=O)(=O)c4c(OC)cccc4OC)c3cc2OC)nc1 [Example 107] : 6540
COc1cc2c(NS(=O)(=O)c3c(OC)cc(C4CCCN4CC(F)F)cc3OC)noc2cc1Nc1cc(C2CC2)n[nH]1 (single isomer, unassigned) [Example 166] : 8.5
COc1cc2c(NS(=O)(=O)c3c(OC)cccc3OC)noc2cc1Nc1ccn(C)n1 [Example 04] : 251

----------
- Assayed system: KAT7+BRPF2+EAF6+ING5 4 protein complex (Homo sapiens (Human))
- Experiment: KAT7 BRPF2 assay (SAMDI-MS acetylation of H3 1-21 peptide)
- Format: biochemical
- Study conditions: Morrison equation fit; replicate number in parentheses; read-out: KAT7 BRPF2 Ki (nM) (replicate number)
Endpoint: Ki (nM)

COc1cc2c(NS(=O)(=O)c3c(OC)cccc3OC)noc2cc1Nc1cc[nH]n1 : 43.6
COc1cc2c(NS(=O)(=O)c3c(OC)cc(C(C)N4CCOCC4)cc3OC)noc2cc1Nc1cc(C2CC2)n[nH]1 (single isomer, unassigned) : 4
COc1cc2c(NS(=O)(=O)c3c(OC)cccc3OC)noc2cc1Nc1n[nH]c(C)n1 : 106

----------
- Assayed system: KAT5 Full length enzyme (Homo sapiens (Human), UniProt Q92993)
- Sequence (Q92993 whole entry): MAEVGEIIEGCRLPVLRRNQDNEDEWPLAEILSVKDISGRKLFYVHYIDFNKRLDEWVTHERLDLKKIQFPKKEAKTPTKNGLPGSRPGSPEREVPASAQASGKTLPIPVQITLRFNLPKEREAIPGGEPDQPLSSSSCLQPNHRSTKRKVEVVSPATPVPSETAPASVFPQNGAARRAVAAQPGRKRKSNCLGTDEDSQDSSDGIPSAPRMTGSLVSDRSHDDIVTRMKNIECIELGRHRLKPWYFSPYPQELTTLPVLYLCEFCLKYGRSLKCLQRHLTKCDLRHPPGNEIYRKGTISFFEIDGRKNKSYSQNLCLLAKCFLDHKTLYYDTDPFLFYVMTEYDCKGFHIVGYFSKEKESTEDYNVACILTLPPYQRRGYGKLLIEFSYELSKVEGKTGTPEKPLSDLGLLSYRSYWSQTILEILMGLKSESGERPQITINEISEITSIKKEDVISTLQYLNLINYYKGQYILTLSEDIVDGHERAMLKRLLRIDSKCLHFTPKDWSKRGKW
- Experiment: KAT5 assay (SAMDI-MS acetylation of H4 1-21 peptide)
- Format: biochemical
- Study conditions: Morrison equation fit; replicate number in parentheses; read-out: KAT5 Ki (nM) (replicate number)
Dear colleague, classification is by Ki, with ranges listed here: c1 = under 200 nM, c2 = from 200 nM up to 3000 nM, c3 = 3000 nM and over

COc1cc2c(NS(=O)(=O)c3c(OC)cc(CN4CC(F)(F)C4)cc3OC)noc2cc1Nc1cc(C2CC2)n[nH]1 [Example 203] : c1
CCc1cc(Nc2cc3onc(NS(=O)(=O)c4ccc(OC)c(F)c4)c3cc2OC)n[nH]1 [Example 133] : c3
COc1cc2c(NS(=O)(=O)c3c(OC)cc(-c4nccc(C(C)N(C)C)n4)cc3OC)noc2cc1Nc1cc(C2CC2)n[nH]1 (stereo not drawn) [Example 227] : c2
COc1cc2c(NS(=O)(=O)c3ccc(Cl)cc3OC)noc2cc1Nc1cc[nH]n1 [Example 27] : c2
COc1cc2c(NS(=O)(=O)c3c(OC)cccc3OC)noc2cc1Nc1ccn(C)n1 [Example 04] : c2
COc1cccc(OC2CC2)c1S(=O)(=O)Nc1noc2cc(Nc3cc(C4CC4)n[nH]3)c(F)c(OC)c12 [Example 80] : c2
COc1cc2c(NS(=O)(=O)c3cc4c(cc3OC)CCCC4)noc2cc1Nc1cc[nH]n1 [Example 05] : c1
CCc1cc(Nc2cc3onc(NS(=O)(=O)c4cc(Cl)ccc4Cl)c3cc2OC)n[nH]1 [Example 134] : c3
COc1cc2c(NS(=O)(=O)c3c(OC)cccc3OC)noc2cc1Nc1cc(C)n[nH]1 [Example 84] : c1
COc1cc2c(NS(=O)(=O)c3c(OC)cccc3OC)noc2cc1Nc1ncc(C)cn1 [Example 110] : c3
COc1cc2c(NS(=O)(=O)c3c(OC)cc(-c4ccncc4)cc3OC)noc2cc1Nc1cc(C2CC2)n[nH]1 [Example 120] : c2
COc1cc2c(NS(=O)(=O)c3ccccc3OC)noc2cc1Nc1cc(C(C)C)[nH]n1 [Example 65] : c2
CCn1ccc(Nc2cc3onc(NS(=O)(=O)c4c(OC)cccc4OC)c3cc2OC)n1 [Example 39] : c2
CCn1cc(Nc2cc3onc(NS(=O)(=O)c4c(OC)cccc4OC)c3cc2OC)nn1 [Example 42] : c3
COc1cc2c(NS(=O)(=O)c3c(OC)cc(-n4ncccc4=O)cc3OC)noc2cc1Nc1cc(C2CC2)n[nH]1 [Example 243] : c1
CCc1cc(Nc2cc3onc(NS(=O)(=O)c4ccc5c(c4)OCCO5)c3cc2OC)n[nH]1 [Example 129] : c3
COc1cc2c(NS(=O)(=O)c3cc(C)ccc3OC)noc2cc1Nc1cc[nH]n1 [Example 24] : c2
CCc1ccnc(Nc2cc3onc(NS(=O)(=O)c4c(OC)cccc4OC)c3cc2OC)n1 [Example 106] : c2
COc1cc2c(NS(=O)(=O)c3c(OC)cc(C4CCCN4C)cc3OC)noc2cc1Nc1cc(C2CC2)n[nH]1 (racemic) [Example 154] : c1
CCc1cc(Nc2cc3onc(NS(=O)(=O)c4ccc(C(F)(F)F)cc4Cl)c3cc2OC)n[nH]1 [Example 124] : c3
CCc1cc(Nc2cc3onc(NS(=O)(=O)c4cccc(Oc5ccccc5C)c4)c3cc2OC)n[nH]1 [Example 125] : c3
COc1cc2c(NS(=O)(=O)c3c(OC)cc(C4CCN(C)C4)cc3OC)noc2cc1Nc1cc(C2CC2)n[nH]1 (single isomer, unassigned) [Example 148] : c1
COc1cc2c(NS(=O)(=O)c3c(OC)cc(-c4cnn(C)c4)cc3OC)noc2cc1Nc1cc(C2CC2)n[nH]1 [Example 123] : c2
CCc1cnc(Nc2cc3onc(NS(=O)(=O)c4c(OC)cccc4OC)c3cc2OC)nc1 [Example 107] : c3
COc1cc2c(NS(=O)(=O)c3c(OC)cc(-c4ccccc4)cc3OC)noc2cc1Nc1cc(C2CC2)n[nH]1 [Example 119] : c1
